Biological target: Estrogen receptor (Homo sapiens, UniProt Q92731+P03372)
Experiment: Inhibition of ER+ MCF-7 breast cancer cell proliferation over 200 hr
Conditions: cancer cell lines
The label TRUE is reserved for IC50 strictly under 1 nM; FALSE covers values equal to or above it.

Enquiry: Please state whether IC50 is below 1 nM for CCCCCS(=O)(=O)CCCCCCCCCC/C(=C(/CC)c1cccc(O)c1)c1ccc(O)cc1
Return: FALSE

Enquiry: Please state whether IC50 is below 1 nM for CC/C(=C(/CCCCCCN(C)CCCSCCCC(F)(F)C(F)(F)F)c1ccc(O)cc1)c1ccc(O)cc1
Return: TRUE

Enquiry: Please state whether IC50 is below 1 nM for CCCCCS(=O)(=O)CCCCCCCCCC/C(=C(/CC)c1ccc(O)cc1)c1cccc(O)c1
Return: FALSE

Enquiry: Please state whether IC50 is below 1 nM for CCCCCSCCCN(C)CCCCCC/C(=C(/CC)c1ccc(O)cc1)c1ccc(O)cc1
Return: TRUE

Enquiry: Please state whether IC50 is below 1 nM for CCCCCS(=O)(=O)CCCCCCCCCC/C(=C(/CC)c1ccc(O)cc1)c1ccc(O)cc1
Return: FALSE

Enquiry: Please state whether IC50 is below 1 nM for CCCCCS(=O)(=O)CCCCCCCCCCn1c(-c2ccc(O)cc2)c(C)c2cc(O)ccc21
Return: FALSE
